Target: human melanocortin receptor 4 (MC4R) (Homo sapiens)
Sequence (P32245 whole entry): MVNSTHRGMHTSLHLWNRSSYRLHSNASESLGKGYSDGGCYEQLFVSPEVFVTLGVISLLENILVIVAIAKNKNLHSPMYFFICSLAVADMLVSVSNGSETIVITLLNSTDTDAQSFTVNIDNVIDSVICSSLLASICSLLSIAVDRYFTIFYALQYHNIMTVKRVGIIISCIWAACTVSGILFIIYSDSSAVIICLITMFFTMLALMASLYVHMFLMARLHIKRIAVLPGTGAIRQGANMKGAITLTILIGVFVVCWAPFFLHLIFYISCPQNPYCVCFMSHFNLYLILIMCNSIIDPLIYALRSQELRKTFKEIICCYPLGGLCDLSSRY
pIC50: −log10 of the molar value.
VALUE_KIND: pIC50

Summary for this compound, CC(C)C(=O)N(C1CCCCC1)[C@H]1CCN(C(=O)[C@H](N)Cc2ccc(Cl)cc2)C1 : pIC50 is 6.30 to 7.00

----------
Molecular target: human melanocortin receptor 4 (MC4R) (Homo sapiens)
Assay: Luciferase functional assay
Conditions: agonistic efficacy against MCR4; functional assay not specified (luciferase or cAMP)
VALUE_KIND: EC50

STRUCTURE_AS_SMILES: CC(C)C(=O)N(C1CCCCC1)[C@H]1CCN(NC(=O)[C@@H](Cc2ccc(Cl)cc2)NC[C@H]2CCCN2)C1
EC50: 5 to 500 nM
--
STRUCTURE_AS_SMILES: CC(C)C(=O)N(C1CCCCC1)[C@H]1CCN(C(=O)[C@@H](Cc2ccc(Cl)cc2)NC(=O)[C@H]2CCCN2)C1
EC50: 5 to 500 nM

Let's switch to this compound now.
Summary for this compound, CC(C)C(=O)N(C1CCCCC1)[C@H]1CCN(C(=O)[C@H](N)Cc2ccc(Cl)cc2)C1 : EC50 is 5 to 500 nM
